Measurement protocol: Quantitative High-Throughput drug screen in 47 multiple myeloma cell lines against the NCATS MIPE library collection: OPM1_PLB cell viability assay (AID 1918989); also: nearly all actives have a fitted effect of over 40% in size
Stated conditions: CellTiter-Glo, 48 h; series mostly up to 45.8 µM
Inconclusive results are not listed. Active and inactive are the calls of the source. Calls follow the shape of the dose curve; as a rule, active = well fitted cell-killing curve with a large enough effect; inconclusive = small, poorly fitted or top-dose-only effect, or effect the other way; inactive = no such curve, though single readings can be large or run the other way.
Entry note: the call must match one of class 1 for active, class 0 for inactive

Some solved entries appear below for comparison.
Molecule	Qualitative label
Cc1ccc(Nc2nccc(N(C)c3ccc4c(C)n(C)nc4c3)n2)cc1S(N)(=O)=O	class 1
Nc1nc(Cl)nc2c1ncn2[C@H]1C[C@H](O)[C@@H](CO)O1	class 1

Inquiry: Write down the call the test reported for this molecule. Item: CC1Cc2ccccc2N1NC(=O)c1ccc(Cl)c(S(N)(=O)=O)c1 (centres undefined)
Reply text: class 0

Inquiry: Similarly, CCC1=C(C)CN(C(=O)NCCc2ccc(S(=O)(=O)NC(=O)NC3CCC(C)CC3)cc2)C1=O (centres undefined) ?
Reply text: class 0

Inquiry: Similarly, c1cnc2cc3c(cc2n1)C1CNCC3C1 ?
Reply text: class 0

Inquiry: Similarly, CC[C@]1(O)C[C@H]2CN(CCc3c([nH]c4ccccc34)[C@@](C(=O)OC)(c3cc4c(cc3OC)N(C=O)[C@H]3[C@@](O)(C(=O)OC)[C@H](OC(C)=O)[C@]5(CC)C=CCN6CC[C@]43[C@@H]65)C2)C1 ?
Reply text: class 1

----------
Test system: CASKI
Measurement protocol: Primary qHTS to identify gynecologic anti-cancer compounds using libraries of approved drugs and bioactive compounds (AID 1345084); also: nearly all actives have a fitted effect of over 55% in size
Stated conditions: Gynecologic cancer cell panel viability, ATPlite luminescence, 48 h; series mostly up to 57.5 µM
Records with an inconclusive call do not appear. Calls of active or inactive are those of the source. Calls follow the shape of the dose curve; as a rule, active = well fitted cell-killing curve with a large enough effect; inconclusive = small, poorly fitted or top-dose-only effect, or effect the other way; inactive = flat fitted curve, though single readings scatter.
Entry note: the call must match one of active, inactive

Compound	Tested on	Qualitative label
O=C1CCc2ccc(OCCCCN3CCN(c4cccc(Cl)c4Cl)CC3)cc2N1	CASKI	inactive
COc1cc(OC)c(C(=O)CCCN2CCCC2)c(OC)c1	CASKI	inactive

Inquiry: Write down the call the test reported for this compound. Item: Cc1c(C(=O)NN2CCCCC2)nn(-c2ccc(Cl)cc2Cl)c1-c1ccc(Cl)cc1
Reply text: inactive

Inquiry: Similarly, CCC1=C(C)CN(C(=O)NCCc2ccc(S(=O)(=O)NC(=O)NC3CCC(C)CC3)cc2)C1=O (configuration not stated) ?
Reply text: inactive

Inquiry: Similarly, NC(=O)Cc1cccc(C(=O)c2ccccc2)c1N ?
Reply text: inactive

Inquiry: Similarly, Clc1ccc(C(Cn2ccnc2)OCc2c(Cl)cccc2Cl)c(Cl)c1 (configuration not stated) ?
Reply text: inactive

Inquiry: Similarly, COc1ccc2cc([C@H](C)C(=O)O)ccc2c1 ?
Reply text: inactive

Inquiry: Similarly, Cc1nc2n(c(=O)c1CCN1CCC(c3noc4cc(F)ccc34)CC1)CCCC2 ?
Reply text: inactive

----------
Measurement protocol: Quantitative High-Throughput drug screen in 47 multiple myeloma cell lines against the NCATS MIPE library collection: KMS21BM_JCRB cell viability assay (AID 1918974)
Stated conditions: ATP luminescence, 48 h
Results filed as inconclusive are left out. The source made the active and inactive calls. The call rests on the fitted dose curve; in most records, active means well fitted cell-killing curve with a large enough effect; inconclusive means small, poorly fitted or top-dose-only effect, or effect the other way; inactive means no such curve, though single readings can be large or run the other way.
Entry note: the call must match one of yes (1) = active, no (0) = inactive

Some solved entries appear below for comparison.
Molecule	Qualitative label
CC(C)(S)[C@@H](N)C(=O)O	no (0)
Cc1cc(=O)c2c(O)c3c(O)cc(=O)c4c3c3c(cc(O)c1c23)C(C)(C)C=4O	yes (1)
CCOC(=O)C1=C(O)C(=O)N(Cc2ccccc2)C1	no (0)
CN(C)c1ccc2nc3ccc(=[N+](C)C)cc-3sc2c1	yes (1)
Clc1ccc(C(Cn2ccnc2)OCc2c(Cl)cccc2Cl)c(Cl)c1 (stereo unspecified)	yes (1)

Now for a further molecule.
Inquiry: Write down the call the test reported for this molecule. Item: O=C(c1ccccc1)c1ccc2n1CCC2C(=O)O (stereo unspecified)
Reply text: no (0)

----------
Measurement protocol: Quantitative High-Throughput drug screen in 47 multiple myeloma cell lines against the NCATS MIPE library collection: NCIH929_DSMZ cell viability assay (AID 1918978); also: nearly all actives have a fitted effect of over 35% in size
Stated conditions: NCI-H929 myeloma viability, CellTiter-Glo ATP, 48 h; series mostly up to 45.8 µM
Results filed as inconclusive are left out. Calls of active or inactive are those of the source. The call rests on the fitted dose curve; in most records, active means well fitted cell-killing curve with a large enough effect; inconclusive means small, poorly fitted or top-dose-only effect; inactive means no such curve, though single readings can be large or run the other way.
Entry note: the call must match one of Y for active, N for inactive

Compound	Qualitative label
COc1c(O)cc2c(c1O)[C@@H]1O[C@H](CO)[C@@H](O)[C@H](O)[C@H]1OC2=O	N
NNc1nncc2ccccc12	N
O=C(O)c1cc(=O)c2c(OCC(O)COc3cccc4oc(C(=O)O)cc(=O)c34)cccc2o1	N
COCCCOc1ccnc(CS(=O)c2nc3ccccc3[nH]2)c1C (stereo not drawn)	N
O=C(O)c1cn(-c2ccc(F)cc2)c2cc(N3CCNCC3)c(F)cc2c1=O	N
CCN(CC)CCOc1ccc(Nc2ncc3cc(-c4c(Cl)cccc4Cl)c(=O)n(C)c3n2)cc1	Y
COC(=O)N[C@H](C(=O)N[C@@H](Cc1ccccc1)[C@@H](O)CN(Cc1ccc(-c2ccccn2)cc1)NC(=O)[C@@H](NC(=O)OC)C(C)(C)C)C(C)(C)C	N
CCC[C@@H]1C[C@@H](C(=O)N[C@@H]([C@H]2O[C@H](SC)[C@H](O)[C@@H](O)[C@H]2O)[C@@H](C)O)N(C)C1	N
O=C(NC(Cc1cc(=O)[nH]c2ccccc12)C(=O)O)c1ccc(Cl)cc1 (stereo not drawn)	N
CCOC(=O)c1c(C)n(C)c2ccc(O)cc12	N

Inquiry: Write down the call the test reported for this compound. Item: CNC[C@@H](O)[C@@H](O)[C@H](O)[C@H](O)CO
Reply text: N

Inquiry: Similarly, COC1=C(OC)C(=O)C(CCCCCCCCCCO)=C(C)C1=O ?
Reply text: Y

Inquiry: Similarly, COC(=O)C1=C(C)NC(C)=C(C(=O)OCCCN2CCC(c3ccccc3)(c3ccccc3)CC2)C1c1cccc([N+](=O)[O-])c1 (stereo not drawn) ?
Reply text: N

Inquiry: Similarly, CC(S)C(=O)NCC(=O)O (stereo not drawn) ?
Reply text: N

Inquiry: Similarly, COc1c2occc2cc2ccc(=O)oc12 ?
Reply text: Y

----------
Test system: SKOV3
Measurement protocol: Primary qHTS to identify gynecologic anti-cancer compounds using libraries of approved drugs and bioactive compounds (AID 1345084); also: nearly all actives have a fitted effect of over 55% in size
Stated conditions: Gynecologic cancer cell panel viability, ATPlite luminescence, 48 h; series mostly up to 57.5 µM
Inconclusive results are not listed. Calls of active or inactive are those of the source. The call rests on the fitted dose curve; in most records, active means well fitted cell-killing curve with a large enough effect; inconclusive means small, poorly fitted or top-dose-only effect, or effect the other way; inactive means flat fitted curve, though single readings scatter.
Entry note: the call must match one of T = active, F = inactive

Some solved entries appear below for comparison.
Compound	Qualitative label
O=C(O)c1cc(=O)c2c(OCC(O)COc3cccc4oc(C(=O)O)cc(=O)c34)cccc2o1	F
CN(C)c1ccc(O)c2c1C[C@H]1C[C@H]3[C@H](N(C)C)C(=O)C(C(N)=O)=C(O)[C@@]3(O)C(=O)C1=C2O	F
COC1=C(OC)C(=O)C(CCCCCCCCCCO)=C(C)C1=O	F
c1cnc2cc3c(cc2n1)C1CNCC3C1	F
COCCCOc1ccnc(CS(=O)c2nc3ccccc3[nH]2)c1C (stereo not given)	F

Inquiry: Write down the call the test reported for this compound. Item: Cc1nc(Nc2ncc(C(=O)Nc3c(C)cccc3Cl)s2)cc(N2CCN(CCO)CC2)n1
Reply text: T

Inquiry: Similarly, Cc1nc2n(c(=O)c1CCN1CCC(c3noc4cc(F)ccc34)CC1)CCCC2 ?
Reply text: F

Inquiry: Similarly, CC(C)[C@H](N)C(=O)OCCOCn1cnc2c(=O)[nH]c(N)nc21 ?
Reply text: F

Inquiry: Similarly, N[C@@H](Cc1cc(I)c(Oc2cc(I)c(O)c(I)c2)c(I)c1)C(=O)O ?
Reply text: F

Inquiry: Similarly, Oc1ccc(OCc2ccccc2)cc1 ?
Reply text: F

----------
System: Dd2
Measurement protocol: qHTS profiling for inhibitors of Plasmodium falciparum proliferation (AID 504749); also: nearly all actives have a fitted effect of over 60% in size
Stated conditions: P. falciparum in erythrocytes, SYBR Green DNA, 72 h; series mostly up to 28.7 µM
Inconclusive results are not listed. The source made the active and inactive calls. Calls follow the shape of the dose curve; as a rule, active = well fitted inhibition curve with a large enough effect; inconclusive = small, poorly fitted or top-dose-only effect; inactive = flat fitted curve, though single readings scatter. Peptide text beside a SMILES is read from it.
Entry note: the call must match one of Yes for active, No for inactive

Compound	Qualitative label
Cc1cc2c(s1)Nc1ccccc1N=C2N1CCN(C)CC1	No
Nc1ccc(S(N)(=O)=O)cc1	No
CC1(C)CCC(C)(C)c2cc(NC(=O)c3ccc(C(=O)O)cc3)ccc21	No
O=C(O)c1cc(=O)c2c(OCC(O)COc3cccc4oc(C(=O)O)cc(=O)c34)cccc2o1	No
CC(C)(S)[C@@H](N)C(=O)O	No
COc1cc2c(cc1OC)C1CC(=O)C(CC(C)C)CN1CC2 (centres undefined)	No
Nc1ccn([C@@H]2O[C@H](CO)[C@@H](O)C2O)c(=O)n1 (some centres undefined)	No
CC(S)C(=O)NCC(=O)O (centres undefined)	No

Inquiry: Write down the call the test reported for this compound. Item: O=C(O)c1cccc(-c2noc(-c3ccccc3F)n2)c1
Reply text: No

Inquiry: Similarly, COC(=O)[C@H](Cc1ccccc1)NC(=O)[C@@H](N)CC(=O)O (H-Asp-Phe-OMe) ?
Reply text: No

Inquiry: Similarly, CCCOc1ccc2nc(NC(=O)OC)[nH]c2c1 ?
Reply text: No

Inquiry: Similarly, CCCCc1ccc2nc(NC(=O)OC)[nH]c2c1 ?
Reply text: No

Inquiry: Similarly, O=C(O)c1cccnc1Nc1cccc(C(F)(F)F)c1 ?
Reply text: No

Inquiry: Similarly, Nc1cc(C(Cl)=C(Cl)Cl)c(S(N)(=O)=O)cc1S(N)(=O)=O ?
Reply text: No

Inquiry: Similarly, Oc1ccc(OCc2ccccc2)cc1 ?
Reply text: No

Inquiry: Similarly, CCN(CCO)CCCC(C)Nc1ccnc2cc(Cl)ccc12 (centres undefined) ?
Reply text: No

Inquiry: Similarly, CC[C@]1(O)C[C@H]2CN(CCc3c([nH]c4ccccc34)[C@@](C(=O)OC)(c3cc4c(cc3OC)N(C=O)[C@H]3[C@@](O)(C(=O)OC)[C@H](OC(C)=O)[C@]5(CC)C=CCN6CC[C@]43[C@@H]65)C2)C1 ?
Reply text: Yes

Inquiry: Similarly, Cc1ccc(C)c(OCCCC(C)(C)C(=O)O)c1 ?
Reply text: No

Inquiry: Similarly, CN(C)CCc1c[nH]c2ccc(Cn3cncn3)cc12 ?
Reply text: No

Inquiry: Similarly, Cc1c(OCC(F)(F)F)ccnc1CS(=O)c1nc2ccccc2[nH]1 (centres undefined) ?
Reply text: No

Inquiry: Similarly, CCCCN(CCCC)CCC(O)c1cc2c(Cl)cc(Cl)cc2c2cc(C(F)(F)F)ccc12 (centres undefined) ?
Reply text: Yes

Inquiry: Similarly, O=C1c2ccccc2-c2n[nH]c3cccc1c23 ?
Reply text: No

Inquiry: Similarly, Nc1cccc2c1CN(C1CCC(=O)NC1=O)C2=O (centres undefined) ?
Reply text: No

Inquiry: Similarly, COc1cc(OC)c(C(=O)CCCN2CCCC2)c(OC)c1 ?
Reply text: No
